tested on: Staphylococcus aureus; test: Antimicrobial activity against methicillin-resistant Staphylococcus aureus 9 assessed as inhibition of visible bacterial growth incubated for 18 hrs by broth-dilution method; format: functional
Numbered stars: 1 amine (or outer) side, 2 acyl side, 3 side chain; on linkers, the order of the positions; unused ones are H or OH. Square brackets hold non-standard residues; d marks the D form. Peptide text beside a SMILES is read from it. * marks the point of attachment. X3 = CC(C)C[C@@H](CN(CC(N)=O)S(=O)(=O)c1ccc(C(F)(F)F)cc1)N*; X4 = N[C@@H](Cc1ccccc1)CN(CC(=O)[*:2])[*:1]; X2 = CC(C)C[C@H](N)CN(CC(=O)[*:2])[*:1]; X1 = O=S(=O)(c1ccc(C(F)(F)F)cc1)*

{"columns": ["compound", "MIC [µg/mL]"],
 "data": [
  ["C[C@@H](O)[C@H]1C(=O)N2C(C(=O)O)=C(SCCNC=N)C[C@H]12 [IMIPENEM ANHYDROUS]", 1],
  ["CC(C)C[C@H](NC(=O)[C@H](CC(C)C)NC(=O)[C@H](CCCCN)NC(=O)[C@H](CCCCN)NC(=O)[C@H](CC(C)C)NC(=O)[C@H](C)NC(=O)[C@H](CCCCN)NC(=O)CN(C[C@@H](N)Cc1ccccc1)S(=O)(=O)c1ccc(C(F)(F)F)cc1)C(N)=O (X1-[X4]KALKKLL-NH2)", 8],
  ["CC1(C)S[C@@H]2[C@H](NC(=O)[C@H](N)c3ccc(O)cc3)C(=O)N2[C@H]1C(=O)O", 8],
  ["CC(C)C[C@@H](CN(CC(N)=O)S(=O)(=O)c1ccc(C(F)(F)F)cc1)NC(=O)[C@H](CCCCN)NC(=O)[C@H](CCCCN)NC(=O)[C@H](CC(C)C)NC(=O)[C@H](CC(C)C)NC(=O)[C@H](CCCCN)NC(=O)[C@H](CC(C)C)NC(=O)[C@@H](N)Cc1ccccc1 (H-FLKLLKK-X3)", 8],
  ["CC(C)C[C@H](N)CN(CC(=O)N[C@@H](CCCCN)C(=O)N[C@@H](CC(C)C)C(=O)N[C@@H](CC(C)C)C(=O)N[C@@H](CCCCN)C(=O)N[C@@H](CCCCN)C(=O)N[C@@H](CC(C)C)C(=O)N[C@@H](CC(C)C)C(N)=O)S(=O)(=O)c1ccc(C(F)(F)F)cc1 (X1-[X2]KLLKKLL-NH2)", 8]
]}
